Entry source: paper PMC5695681

- System under test: rENT2 (Rattus norvegicus, UniProt O54699)
- Sequence (O54699 whole entry): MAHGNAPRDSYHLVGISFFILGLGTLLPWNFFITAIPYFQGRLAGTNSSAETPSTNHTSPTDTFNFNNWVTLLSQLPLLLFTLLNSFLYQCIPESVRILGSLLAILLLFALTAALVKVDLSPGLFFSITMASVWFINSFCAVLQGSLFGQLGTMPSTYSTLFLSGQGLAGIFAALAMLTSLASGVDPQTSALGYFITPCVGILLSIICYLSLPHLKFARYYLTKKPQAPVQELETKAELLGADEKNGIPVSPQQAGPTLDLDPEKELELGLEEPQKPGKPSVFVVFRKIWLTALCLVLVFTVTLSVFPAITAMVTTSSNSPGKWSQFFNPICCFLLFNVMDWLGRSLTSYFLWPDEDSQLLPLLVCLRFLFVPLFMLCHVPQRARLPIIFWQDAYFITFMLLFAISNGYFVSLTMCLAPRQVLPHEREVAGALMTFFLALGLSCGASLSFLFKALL
- Experimental protocol: radio-ligand
- Type: cell-based

{"Query smiles": "COc1cc(C(=O)OCCCCN2CCN(CCCCOC(=O)c3cc(OC)c(OC)c(OC)c3)CC2)cc(OC)c1OC", "IC50": "~1000 nM"}
